- tested_on: hTRPA1 (Homo sapiens, UniProt O75762)
- Sequence (O75762 whole entry): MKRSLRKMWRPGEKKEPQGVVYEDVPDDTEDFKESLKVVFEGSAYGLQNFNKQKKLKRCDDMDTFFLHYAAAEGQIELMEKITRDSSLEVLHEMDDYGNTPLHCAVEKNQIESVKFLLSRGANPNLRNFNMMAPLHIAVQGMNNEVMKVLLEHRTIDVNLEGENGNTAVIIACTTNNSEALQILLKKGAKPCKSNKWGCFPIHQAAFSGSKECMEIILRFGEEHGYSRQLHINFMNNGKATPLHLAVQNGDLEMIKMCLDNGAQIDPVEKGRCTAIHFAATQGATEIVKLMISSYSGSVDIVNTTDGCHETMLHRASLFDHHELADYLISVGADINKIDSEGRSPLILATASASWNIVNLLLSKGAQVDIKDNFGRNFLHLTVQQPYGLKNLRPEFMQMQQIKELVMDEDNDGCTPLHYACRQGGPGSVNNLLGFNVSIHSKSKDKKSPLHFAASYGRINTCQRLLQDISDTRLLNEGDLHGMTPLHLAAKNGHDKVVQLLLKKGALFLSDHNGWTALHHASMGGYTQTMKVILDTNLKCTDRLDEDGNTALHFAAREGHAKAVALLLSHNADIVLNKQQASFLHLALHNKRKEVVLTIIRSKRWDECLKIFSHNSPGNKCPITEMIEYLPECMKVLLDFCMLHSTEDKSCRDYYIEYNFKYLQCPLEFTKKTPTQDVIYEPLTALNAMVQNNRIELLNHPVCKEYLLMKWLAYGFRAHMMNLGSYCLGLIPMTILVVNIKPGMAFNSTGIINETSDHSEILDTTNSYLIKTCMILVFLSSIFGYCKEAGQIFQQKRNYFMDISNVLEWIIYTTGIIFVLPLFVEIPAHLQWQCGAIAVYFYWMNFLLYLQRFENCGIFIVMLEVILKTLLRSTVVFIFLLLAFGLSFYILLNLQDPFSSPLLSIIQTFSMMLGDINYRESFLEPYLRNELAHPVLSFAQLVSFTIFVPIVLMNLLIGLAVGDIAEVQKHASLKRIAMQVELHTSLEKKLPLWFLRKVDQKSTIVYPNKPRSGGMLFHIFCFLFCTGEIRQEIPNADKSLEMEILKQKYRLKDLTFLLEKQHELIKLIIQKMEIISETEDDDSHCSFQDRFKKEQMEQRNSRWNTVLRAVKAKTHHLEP
- protocol_description: ChanTest hTRPA1-CHO calcium flux dose response assay (FLIPR, cinnamaldehyde agonist)
- measurement_parameters: CHO-K1 Tet-On hTRPA1 cells, 100 uM cinnamaldehyde agonist, 30 min compound preincubation
- Description: IC50 Determination of Exemplified Compounds Dose Response Assay: ChanTest hTRPA1-CHO Stably Transfected Cell Line CHO-K1 Tet-On HOMSA TRPA1 Clone 20 0.40 mg/ml Zeocin • The cell line doubling rate was ˜15 hours. […] After incubation, both the cell and compound plates were brought to the FLIPR and 20 ul of the diluted compounds/antagonist/bk were transferred to the cell plates by the FLIPR. […] Responses (increase in peak fluorescence) in each well following agonist addition was determined. […]
Where a name gives a salt, the structure may show the parent alone.
readout_name: pIC50
Please keep in mind that pIC50 is minus log10 of the molar concentration; only the number is needed.

Some solved cases for reference:
FC(F)(F)c1cccc(C2CCCN(CC(Cc3nc4ccc(Cl)cc4o3)C(F)(F)F)C2)c1 (centres unmarked) [Example 4, hydrochloride] :: 4.91
FC(F)(F)c1ccc(C2CN(CC(Cc3nnc(-c4ccc(Cl)cc4)o3)C(F)(F)F)CCO2)cc1 (centres unmarked) :: 6.57
FC(F)(F)c1cccc(C2CCCN(CC(Cc3ncc(-c4ccc(Cl)cc4)[nH]3)C(F)(F)F)C2)c1 (centres unmarked) [Example 2, hydrochloride] :: 5.43
Fc1ccc(-c2nnc(CC(CN3CCOC(c4ccc(C(F)(F)F)cc4)C3)C(F)(F)F)o2)cc1 (centres unmarked) [Example 17, hydrochloride] :: 7.21
FC(F)(F)c1cccc(C2CCCN(CC(Cc3ncc(-c4ccccc4)[nH]3)C(F)(F)F)C2)c1 (centres unmarked) [Example 5, hydrochloride] :: 4.95
FC(F)(F)c1cccc(C2CCCN(CC(Cc3nnc(-c4ccc(Cl)cc4)o3)C(F)(F)F)C2)c1 (centres unmarked) [Example 3, hydrochloride] :: 6.15
FC(F)(F)c1cccc(C2CCCN(CC(Cc3nc(-c4ccc(Cl)cc4)no3)C(F)(F)F)C2)c1 (mixture of isomers) [Example 14, hydrochloride] :: 5.58
FC(F)(F)c1cccc(C2CCCN(CC(Cc3nc4cc(Cl)ccc4[nH]3)C(F)(F)F)C2)c1 (centres unmarked) [Example 1, hydrochloride] :: 5.17

### Prompt Output reported pIC50 of the molecule Fc1ccc(-c2cnc(CC(CN3CCCC(c4cccc(C(F)(F)F)c4)C3)C(F)(F)F)[nH]2)cc1 (centres unmarked) [Example 7, hydrochloride] on hTRPA1 (Homo sapiens, UniProt O75762).
### Response 5.22

### Prompt Output reported pIC50 of the molecule FC(F)(F)c1cccc(C2CCCN(CC(Cc3ncc(-c4cccc(Cl)c4)[nH]3)C(F)(F)F)C2)c1 (centres unmarked) [Example 6, hydrochloride] on hTRPA1 (Homo sapiens, UniProt O75762).
### Response 5.65

### Prompt Output reported pIC50 of the molecule Fc1ccc(-c2nc(CC(CN3CCCC(c4cccc(C(F)(F)F)c4)C3)C(F)(F)F)no2)cc1 (centres unmarked) [Example 15, hydrochloride] on hTRPA1 (Homo sapiens, UniProt O75762).
### Response 6.50

---

# key: entry, value: IC50
- tested_on: UniProt:O75762
- protocol_description: ChanTest hTRPA1-CHO calcium flux dose response assay (FLIPR, cinnamaldehyde agonist)
- measurement_parameters: CHO-K1 Tet-On hTRPA1 cells, 100 uM cinnamaldehyde agonist, 30 min compound preincubation
Where a name gives a salt, the structure may show the parent alone.
Numbers only here, please. The scale is nM.

FC(F)(F)c1cccc(C2CN(CC(Cc3nnc(-c4ccc(Cl)cc4)o3)C(F)(F)F)CCO2)c1 (stereo not shown) [Example 16, hydrochloride] :: 228

### Prompt Answer with reported IC50 of Fc1ccc(-c2nnc(CC(CN3CCOC(c4cccc(C(F)(F)F)c4)C3)C(F)(F)F)o2)cc1 (stereo not shown) [Example 12, hydrochloride]
### Response 112

### Prompt Answer with reported IC50 of FC(F)(F)c1cccc(C2CCCN(CC(Cc3nnc(-c4ccc(Cl)cn4)o3)C(F)(F)F)C2)c1 (stereo not shown) [Example 11, hydrochloride]
### Response 30000

### Prompt Answer with reported IC50 of Fc1ccc(-c2nnc(CC(CN3CCCC(c4cccc(C(F)(F)F)c4)C3)C(F)(F)F)o2)cc1 (stereo not shown) [Example 8, hydrochloride]
### Response 116

### Prompt Answer with reported IC50 of FC(F)(F)c1cccc(C2CCCN(CC(Cc3ncc(-c4ccc(Cl)cc4)o3)C(F)(F)F)C2)c1 (stereo not shown) [Example 13, hydrochloride]
### Response 7270

### Prompt Answer with reported IC50 of Cc1ccc(-c2nnc(CC(CN3CCCC(c4cccc(C(F)(F)F)c4)C3)C(F)(F)F)o2)cn1 (stereo not shown) [Example 10]
### Response 2400

### Prompt Answer with reported IC50 of FC(F)(F)c1cccc(C2CCCN(CC(Cc3nnc(-c4cccc(Cl)c4)o3)C(F)(F)F)C2)c1 (stereo not shown) [Example 9, hydrochloride]
### Response 9110
